Target: T1, TtSlyDcas-Her3
T1 chain: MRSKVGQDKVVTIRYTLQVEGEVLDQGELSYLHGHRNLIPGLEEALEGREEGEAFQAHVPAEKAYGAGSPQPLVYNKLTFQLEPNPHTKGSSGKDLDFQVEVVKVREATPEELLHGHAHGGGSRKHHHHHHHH
Assay: ELISA, antigen coated, hybridoma supernatant
measurement name: OD 405 nm
Please answer in the form of a number followed by its unit of measurement.

**Q:** Quickly give me recorded OD 405 nm for anti-HER3 antibody M-46-01 (antibody, V domains shown, mouse hybridoma clone) VH: QIQLQQSGPQLVRPGASVKISCKASGYSFTSYWMHWVKQRPGRGLEWIGMIDPSDGVTRLNQKFKDKATLTVDNSSSTAYMQLSSPTSEDSAVHYCARVDVLYWYFDVWGAGTTVTVSS VL: DIVLTQSPASLAVSLGQRATISCRASKSISISGYSYMHWYQQKAGQPPKLLIYLTSNLESGVPARFSGSGSGTDFTLNIHPVEEEDAATYYCHHSRELPFTFGSGTKLEIK
**A:** 2.56 OD

**Q:** State, in one line, measured OD 405 nm of anti-HER3 antibody M-17-12 (antibody, V domains shown, mouse hybridoma clone; VH and VL stated identical to those of M-17-02) VH: EVQLQQSGTVLARPGASVKMSCKASGYSFTSYWIHWVKQRPGQGLEWIGAIYPGNSDTTYNQKFKGKAKLTAVTSASTAYMELSSLTNEDSAVYYCARTGVWTSYYFDYWGQGTTLTVSS VL: DIQMTQSPASLSASVGETVTITCRASENIYSNLAWYQQKQGKSPQLLVYAATNLADGVPSRFSGSGSGTQFSLRINSLQPEDFGSYYCQHFYGTPFTFGTGTKLEIK
**A:** 1.31 OD

**Q:** Determine its reported OD 405 nm: anti-HER3 antibody M-17-07 (antibody, V domains shown, mouse hybridoma clone) VH: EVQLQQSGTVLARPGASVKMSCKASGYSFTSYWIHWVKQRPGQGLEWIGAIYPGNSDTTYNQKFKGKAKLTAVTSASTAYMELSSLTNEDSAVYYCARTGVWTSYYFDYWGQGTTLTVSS VL: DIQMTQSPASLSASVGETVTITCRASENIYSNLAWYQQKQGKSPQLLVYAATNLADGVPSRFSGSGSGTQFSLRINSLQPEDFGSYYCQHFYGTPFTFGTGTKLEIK
**A:** 1.4 OD
